- testedOn: T1, human serum albumin (human, UniProt P02768 25-609)
- T1 construct: also called HSA; human albumin
- experimentSummary: BLI (Octet HTX), VHH-His on Penta-His sensors, 100 nM albumin
readoutType: binding result

[
  {
    "binder": "HAS080 (VHH, anti-albumin VHH-His) VHH: QVRLAESGGGRVQAGESLRLSCVASGRTFSNDAAGWFREASGKEREFVASISWSGNYTYYADSVKGRFTISEDNVKNTVYLQMTSLKPEDTAVYYCAAGNRYSDYRISLVTPRLYEYWGQGTQVTVSH",
    "result": "binds"
  },
  {
    "binder": "HAS038 (VHH, anti-albumin VHH-His) VHH: QVQLVESGGGLVQPGGSLRLSCTGSGHSFSTYTVGWFRQAPGEERKFVASISWSGEVTLYGDSVKGRFTISRDNRKKTVYLQMHSLKPEDSAIYYCAAKRGGRPTDSSDDYFYWGQGTQVTVSS",
    "result": "binds"
  },
  {
    "binder": "HAS044 (VHH, anti-albumin VHH-His) VHH: QVQLVESGGGLVQAGGSLRLSCAASGRTFSSYAIGWFRQAPGKAREFVARVSTIAGDTDYADSVKGRFTISRDNAKNTVYLQMNSLKPEDTAVYYCAADSYNVRLVTGEADYWGEGTQVTVSS",
    "result": "binds"
  },
  {
    "binder": "HAS077 (VHH, anti-albumin VHH-His) VHH: QVQLVESGGGLVQAGGSLRLSCAASGRTFSSYAIGWFRQAPGKAREFVARVSTIAGDTDYADSVKGRFTISRDNAKNTVYLQMNSLKPEDTAVYYCAADSYNVRLGTGEADYWGEGTQVTVSS",
    "result": "binds"
  }
]
